system: biotinyl-Ile-oxazolone; experiment: self-aminoacylation, catalytic enhancement (BIO) (fold over background); higher = more active; k-Seq, kA / k0A0; sequences stand for … in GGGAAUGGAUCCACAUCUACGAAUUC…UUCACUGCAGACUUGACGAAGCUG
This sample holds only a part of the variants without activity.
Kind request: treat 2 as inclusive, so self-aminoacylation at 2 or higher is T, anything lower is F.

Reported self-aminoacylation at or above 2? GAGUUUGCUAGUAGUCGCAAG [Fam3.1 aminoacylation ribozyme variant]
F

Check if self-aminoacylation >= 2 (inclusive). Item: AAGUUUGCUAAUCGUCGCGAG [Fam3.1 aminoacylation ribozyme variant]
F

Test whether the sequence AAGCUUGCUAAUAGUAGCAAG [Fam3.1 aminoacylation ribozyme variant] records self-aminoacylation of 2 or higher.
F

self-aminoacylation >= 2 for AUUACCCUGUUCAUGGAGUGA [Fam2.1 aminoacylation ribozyme variant] ?
T

Item AUUAGCCUGGACAUCGAGUGA [Fam2.1 aminoacylation ribozyme variant] with self-aminoacylation of 2 or above?
T

Please indicate if the recorded self-aminoacylation for UAGUUUGCUAAUAGUCCCAAG [Fam3.1 aminoacylation ribozyme variant] meets or exceeds 2.
F

Threshold query (self-aminoacylation >= 2) on CAGUUUGCCAAUAGUCGCAAG [Fam3.1 aminoacylation ribozyme variant]
T

Evaluate UUUAGCCUGGUCAUCGAGUGA [Fam2.1 aminoacylation ribozyme variant] : self-aminoacylation at minimum 2?
T

For this sequence, is measured self-aminoacylation 2 or higher? CCUAACUUCAAGCAAUCGGUC [Fam1B.1 aminoacylation ribozyme variant]
F

Test whether the sequence AUUAACCUAGGUAAUCGGGUG [Fam2.2 aminoacylation ribozyme variant] records self-aminoacylation of 2 or higher.
F

// inclusive: self-aminoacylation at least 2? input: CUUACCCUGGUCAUCAAGUGA [Fam2.1 aminoacylation ribozyme variant]
F

Reported self-aminoacylation at or above 2? CUACUGCAGACAAUCGGUCUG [Fam1A.1 aminoacylation ribozyme variant]
F

Kindly determine if self-aminoacylation recorded for CCCCACCUCAAGCAAUCGGUC [Fam1B.1 aminoacylation ribozyme variant] is above or exactly 2.
F

Reported self-aminoacylation at or above 2? CCACACUUCAAGCAAUCGCUG [Fam1B.1 aminoacylation ribozyme variant]
F

self-aminoacylation >= 2 for AUUAUCCUGGUCAUAGAGUGA [Fam2.1 aminoacylation ribozyme variant] ?
T

// inclusive: self-aminoacylation at least 2? input: CUACUUCAAAGAAUGGGUCUG [Fam1A.1 aminoacylation ribozyme variant]
F

Please check the record CUACUUCAGACAAUCGAUCUG [Fam1A.1 aminoacylation ribozyme variant] and state if its self-aminoacylation is at or above 2.
F

Kindly determine if self-aminoacylation recorded for CCACGCUUCAAGCAAUCAGUC [Fam1B.1 aminoacylation ribozyme variant] is above or exactly 2.
F

Check this sequence for self-aminoacylation at or above 2: AUAACCCUGUUCAUCGAGUGA [Fam2.1 aminoacylation ribozyme variant]
T

Decide: self-aminoacylation of AUUUACCUAGGGCAUCGGGUG [Fam2.2 aminoacylation ribozyme variant] >= 2?
T

Does CAACACUUGAAGCAAUCGGUC [Fam1B.1 aminoacylation ribozyme variant] have a reported self-aminoacylation of at least 2?
F

Is self-aminoacylation at least 2? Consider AUUAACCUUGUCAUCGAGUGA [Fam2.1 aminoacylation ribozyme variant]
T

Could you verify whether the entry AUUCAUCUACGUCAUCGGGUG [Fam2.2 aminoacylation ribozyme variant] shows self-aminoacylation of no less than 2?
T

For this sequence, is measured self-aminoacylation 2 or higher? CUACUUCAAACGAUCGAUCUG [Fam1A.1 aminoacylation ribozyme variant]
F

Is reported self-aminoacylation greater than or equal to 2 here: CUAAUUCAAACAAUCAGUCUG [Fam1A.1 aminoacylation ribozyme variant]
F

Is the recorded value of self-aminoacylation equal to or greater than 2 for this sequence? AUUACCCUGGUCUUCGGGUGA [Fam2.1 aminoacylation ribozyme variant]
T

Is reported self-aminoacylation greater than or equal to 2 here: AUUCACUUAGGUCAUUGGGUG [Fam2.2 aminoacylation ribozyme variant]
T

Does the reported self-aminoacylation for AUUACCACGGUCAUCGAGUGA [Fam2.1 aminoacylation ribozyme variant] fall at or above the 2 mark?
T

Hello, I need to know if CUCUUUCAAACAAUCGGUCUG [Fam1A.1 aminoacylation ribozyme variant] has measured self-aminoacylation not below 2. Thanks!
F

Hi, just wondering whether CCACACUUCAAGCACUCGAUC [Fam1B.1 aminoacylation ribozyme variant] shows self-aminoacylation of 2 or higher.
F

Hi team, for CUACUUCAAACCAUCGCUCUG [Fam1A.1 aminoacylation ribozyme variant] , is the recorded self-aminoacylation at or above 2?
F

Check this sequence for self-aminoacylation at or above 2: AAGUUUGCAAAAAGUCGCAAG [Fam3.1 aminoacylation ribozyme variant]
F

For this sequence, is measured self-aminoacylation 2 or higher? AAGUUUGCUAAUAGUCGCCCG [Fam3.1 aminoacylation ribozyme variant]
T

For this sequence, is measured self-aminoacylation 2 or higher? AAGUUUGCUAAUAGCCGUAAG [Fam3.1 aminoacylation ribozyme variant]
F

Check the entry CUACUACAAACAAUCUGUCUG [Fam1A.1 aminoacylation ribozyme variant] : does self-aminoacylation equal or exceed 2?
F
